Task for the reader: assign each of the following compounds its reported Γmax (surface excess concentration at surface saturation).
# METHOD_SUMMARY: Effectiveness of adsorption (surface excess concentration, Gibbs equation)
# Format: physicochemical
# STATED_CONDITIONS: 60 °C, estimated by extrapolating a linear line

# input Looking for the measured Γmax (surface excess concentration at surface saturation) of CCCCCCCCCCCCOCCOCCOCCOCCOCCOCCOCCOCCO [Dodecylocta(oxyethylene) Ether] , can you help?
# output 2.40 × 10^-10 mole/cm^2

# input Would you kindly share the measured Γmax (surface excess concentration at surface saturation) for CCCCCCCCCCCCOCCOCCOCCO [Dodecyltri(oxyethylene) Ether] ?
# output 3.83 × 10^-10 mole/cm^2

# input Reported Γmax (surface excess concentration at surface saturation) for CCCCCCCCCCCCOCCOCCOCCOCCO [Dodecyltetra(oxyethylene) Ether] : what is it?
# output 3.01 × 10^-10 mole/cm^2

# input Form field: reported Γmax (surface excess concentration at surface saturation) of CCCCCCCCCCCCOCCOCCOCCOCCOCCOCCOCCO [Dodecylhepta(oxyethylene) Ether]
# output 2.71 × 10^-10 mole/cm^2

# input Could you share which Γmax (surface excess concentration at surface saturation) value was measured for CCCCCCCCCCCCOCCOCCOCCOCCOCCO [Dodecylpenta(oxyethylene) Ether] ?
# output 3.16 × 10^-10 mole/cm^2
